- SYSTEM_UNDER_TEST: human cloned somatostatin receptor 5 (human) (UniProt P35346)
- Sequence (P35346 whole entry): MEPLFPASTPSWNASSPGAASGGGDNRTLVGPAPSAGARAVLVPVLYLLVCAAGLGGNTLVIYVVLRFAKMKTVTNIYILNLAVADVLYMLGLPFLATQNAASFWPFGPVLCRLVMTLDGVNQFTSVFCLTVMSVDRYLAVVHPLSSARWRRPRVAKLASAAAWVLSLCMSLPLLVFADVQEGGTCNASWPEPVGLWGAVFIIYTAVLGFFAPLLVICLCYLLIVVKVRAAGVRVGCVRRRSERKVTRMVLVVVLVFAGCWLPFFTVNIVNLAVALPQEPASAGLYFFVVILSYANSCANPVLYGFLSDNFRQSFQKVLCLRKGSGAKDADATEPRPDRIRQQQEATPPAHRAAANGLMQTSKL
- METHOD_SUMMARY: 125I-Tyr11-SRIF-14 displacement
*1 amine or outer side, *2 acyl side, *3 side chain or, on linkers, in order; H or OH if unused. Bridges are numbered along the chain shown (N, C = ends). [ ]: non-standard residue; d: D form. The star is where a group is joined. DOTA = O=C(O)CN1CCN(CC(=O)O)CCN(CC(=O)*)CCN(CC(=O)O)CC1; N(2-mercaptoethyl)Gly = O=C(CN(CCS[*:3])[*:1])[*:2]; 4Amb = NCc1ccc(C(=O)O)cc1; Aoc = NCCCCCCCC(=O)O; CPT = camptothecin; GABA = NCCCC(=O)O
READOUT_NAME: % displacement at 1 nM (%)
Value expressed in %; do not type the unit.

Reference set (4 entries):
[[record]]
binder = "{DOTA}-[dF]RCY[dW]KTF[N(2-mercaptoethyl)Gly]-NH2 (disulfide 3-9; SMILES C[C@@H](O)[C@@H]1NC(=O)[C@H](CCCCN)NC(=O)[C@@H](Cc2c[nH]c3ccccc23)NC(=O)[C@H](Cc2ccc(O)cc2)NC(=O)[C@@H](NC(=O)[C@H](CCCNC(=N)N)NC(=O)[C@@H](Cc2ccccc2)NC(=O)CN2CCN(CC(=O)O)CCN(CC(=O)O)CCN(CC(=O)O)CC2)CSSCCN(CC(N)=O)C(=O)[C@H](Cc2ccccc2)NC1=O) [SEQ ID NO: 25]"
test_result = 6

[[record]]
binder = "{DOTA-GABA}-[dF]RCF[dW]KTF[N(2-mercaptoethyl)Gly]-NH2 (disulfide 3-9; also: Ga complex of DOTA) [SEQ ID NO: 8]"
test_result = 0

[[record]]
binder = "{DOTA}-A[dF]RCF[dW]KTF[N(2-mercaptoethyl)Gly]-NH2 (disulfide 4-10; SMILES C[C@H](NC(=O)CN1CCN(CC(=O)O)CCN(CC(=O)O)CCN(CC(=O)O)CC1)C(=O)N[C@H](Cc1ccccc1)C(=O)N[C@@H](CCCNC(=N)N)C(=O)N[C@H]1CSSCCN(CC(N)=O)C(=O)[C@H](Cc2ccccc2)NC(=O)[C@H]([C@@H](C)O)NC(=O)[C@H](CCCCN)NC(=O)[C@@H](Cc2c[nH]c3ccccc23)NC(=O)[C@H](Cc2ccccc2)NC1=O) [SEQ ID NO: 12]"
test_result = 0

[[record]]
binder = "{CPT-Aoc}-[dF]RCF[dW]KTF[N(2-mercaptoethyl)Gly]-NH2 (disulfide 3-9) [SEQ ID NO: 27]"
test_result = 0


Would you kindly look at the next entry?
Data request: Give its % displacement at 1 nM value. Item: {DOTA-4Amb}-[dF]RCF[dW]KTF[N(2-mercaptoethyl)Gly]-NH2 (disulfide 3-9) [SEQ ID NO: 18]
Data returned: 0
